Values from PubChem BioAssay AID330

test system: P388 leukemia ip, CD2F1 mice, survival T/C; experiment: NCI In Vivo Anticancer Drug Screen. Data for tumor model P388 Leukemia (intraperitoneal) in CD2F1 (CDF1) mice; conditions: endpoint: median survival time; dose: 400.0 mg/kg/injection; schedule: Q01DX001 (ip); vehicle: saline with Tween-80; higher = longer survival
Toxic doses and inconclusive results are not listed.
METRIC: T/C

O=C(c1ccccc1)c1c(-c2ccccc2)c(=O)n2c(sc3ccccc32)c1C(=O)c1ccccc1	109 % of control
Cc1cc(Cl)ccc1NC(=O)/C(Cl)=C1/Sc2ccccc2NC1=O	97 % of control
S=C(S)n1nc(-c2ccccc2)c(N=Nc2cccc(Cl)c2)c1-c1ccccc1	113 % of control

Requested read-out T/C, target or system P388 leukemia ip, CD2F1 mice, survival T/C, entry "CCOC(=O)/C=C(\C(=O)OCC)N(O)C(=O)CN1C(=O)c2ccccc2C1=O" 93 % of control

Requested read-out T/C, target or system P388 leukemia ip, CD2F1 mice, survival T/C, entry "CNC(=S)N/N=C/c1nc2ccccc2c(=O)n1-c1ccc(Cl)cc1" 92 % of control

Requested read-out T/C, target or system P388 leukemia ip, CD2F1 mice, survival T/C, entry "Cn1c(=O)ccc2c(=O)c3cc(Br)ccc3oc21" 96 % of control

Requested read-out T/C, target or system P388 leukemia ip, CD2F1 mice, survival T/C, entry "C/C(CC(O)(c1ccccc1)c1ccccc1)=N\SC(c1ccccc1)(c1ccccc1)c1ccccc1" 98 % of control

Requested read-out T/C, target or system P388 leukemia ip, CD2F1 mice, survival T/C, entry "C/C(=C\c1cc(Cl)ccc1OCC(=O)O)[N+](=O)[O-]" 115 % of control

---

test system: P388 leukemia ip, CD2F1 mice, survival T/C; experiment: NCI In Vivo Anticancer Drug Screen. Data for tumor model P388 Leukemia (intraperitoneal) in CD2F1 (CDF1) mice; settings: endpoint: median survival time; dose: 240.0 mg/kg/injection; schedule: Q01DX005 (ip); vehicle: Klucel (hydroxypropylcellulose) (HPC); higher = longer survival
Toxic doses and inconclusive results are not listed.
Below, each entry is listed alongside its reported T/C.

Illustrative cases are given below, each with its answer.
CCn1c2ccccc2c2cc(N=C3C(=O)N(C)c4ccccc43)ccc21	90 % of control
CCOC(=O)C1=C(C(=O)C(C)(C)C)C(c2ccc([N+](=O)[O-])cc2)C(C(=O)C(C)(C)C)=C(C(=O)OCC)N1	103 % of control

Dear colleague, I am looking for the recorded T/C of the following compound: CCCCCCC(=O)CC1(C(=O)OC)NC(=S)NC(=O)C1C#N (centres undefined) 97 % of control

Dear colleague, I am looking for the recorded T/C of the following compound: O=C1C2CN(Cc3ccccc3)CC2C(=O)N1c1ccccc1 (centres undefined) 100 % of control

Dear colleague, I am looking for the recorded T/C of the following compound: COc1ccc(C2OC(=O)C=C(C)O2)cc1 (centres undefined) 117 % of control

Dear colleague, I am looking for the recorded T/C of the following compound: "Nc1ccc(S(=O)(=O)Nc2c(N)nc(SCC(=O)O)[nH]c2=O)cc1" 92 % of control

Dear colleague, I am looking for the recorded T/C of the following compound: CNC(=O)OCCC(OC(=O)NC)C1CCC2C3CC=C4CC(OC(=O)NC)CCC4(C)C3CCC12C (centres undefined) 100 % of control
